Test: qHTS assay to identify small molecule antagonists of the estrogen receptor alpha (ER-alpha) signaling pathway using the BG1 cell line - cell viability counter screen (AID 743081);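 further: compound given together with 17beta-estradiol as the ER stimulus; on the % scale 0 is the no-effect control and ±100 the full control effect; nearly all actives have a fitted effect of over 45% in size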
Details: BG1Luc4E2 viability, CellTiter-Fluor, 22 h; series mostly up to 70.3 µM
Inconclusive results are not listed. Active and inactive are the calls of the source. The call rests on the fitted dose curve; in most records, active means well fitted cell-killing curve with a large enough effect in the repeat runs; inconclusive means weak or mixed curves, or effect the other way; inactive means flat fitted curve, though single readings scatter.

- Compound: "CCOc1ccccc1OCCN[C@H](C)Cc1ccc(OC)c(S(N)(=O)=O)c1"
  activity change, negative = cytotoxicity: "inactive"
- Compound: "CN(C)c1ccncc1"
  activity change, negative = cytotoxicity: "inactive"
- Compound: "NCC1CCC(C(=O)Oc2ccc(CCC(=O)O)cc2)CC1 (centres undefined)"
  activity change, negative = cytotoxicity: "inactive"
- Compound: "CCCCCC(CC)OC(=O)CCCOc1ccc(Cl)cc1Cl (centres undefined)"
  activity change, negative = cytotoxicity: "inactive"
- Compound: "CCCCC(CC)CCC(CC(C)C)OS(=O)(=O)O (centres undefined)"
  activity change, negative = cytotoxicity: "inactive"
- Compound: "CCCC(=O)CC"
  activity change, negative = cytotoxicity: "inactive"
- Compound: "CC(=O)SCC(CC(=O)c1ccc(C)cc1)C(=O)O (centres undefined)"
  activity change, negative = cytotoxicity: "inactive"
- Compound: "Cc1cc(N)no1"
  activity change, negative = cytotoxicity: "inactive"
- Compound: "O=C[C@@H](O)[C@H](O)[C@H](O)CO"
  activity change, negative = cytotoxicity: "inactive"
- Compound: "CN1CCN(C(=O)C2CCCCC2)CC1"
  activity change, negative = cytotoxicity: "inactive"
- Compound: "C/C=C/C(=O)CCCC"
  activity change, negative = cytotoxicity: "inactive"
- Compound: "C=CCCCCCCCCCCCCCC"
  activity change, negative = cytotoxicity: "inactive"
- Compound: "CC(=O)OCC(=O)[C@@]1(O)CC[C@H]2[C@@H]3CCC4=CC(=O)C=C[C@]4(C)[C@H]3[C@@H](O)C[C@@]21C"
  activity change, negative = cytotoxicity: "inactive"
- Compound: "CC(=O)OC1CCC(C(C)(C)C)CC1 (centres undefined)"
  activity change, negative = cytotoxicity: "inactive"

====

Test: qHTS assay to identify small molecule HDAC inhibitors (AID 1259364);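 further: wild-type HCT-116 cells with endogenous class I/II HDAC activity; top concentration of the series differs between compounds; on the % scale 0 is the no-effect control and ±100 the full control effect; nearly all actives have a fitted effect of over 45% in size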
Conditions: HCT-116 HDAC-Glo I/II luminescence, 2 h; series mostly up to 92.4 µM
Records with an inconclusive call do not appear. Active and inactive are the calls of the source. Calls come from the whole dose curve; as a rule, active = well fitted inhibition curve with a large enough effect in the repeat runs; inconclusive = weak or mixed curves; inactive = flat fitted curve, though single readings scatter.

- Compound: "CC(C)C(=O)Nc1cccc(C2CN3CCSC3=N2)c1 (stereo not given)"
  activity change, negative = inhibition: "inactive"
- Compound: "N=C(N)N1CCc2ccccc2C1"
  activity change, negative = inhibition: "3.09% [at 8.39 µM] (inactive)"
- Compound: "CC1=C(O)C(=O)CO1"
  activity change, negative = inhibition: "inactive"
- Compound: "CC(C)(O)c1ccc(C(C)(C)O)cc1"
  activity change, negative = inhibition: "inactive"
- Compound: "C=CCCCCCCCCCCCCCC"
  activity change, negative = inhibition: "0.0889% [at 19 µM] (inactive)"
- Compound: "CC(=O)OC1CCC(C(C)(C)C)CC1 (stereo not given)"
  activity change, negative = inhibition: "inactive"
- Compound: "CCc1ncc(C)[nH]1"
  activity change, negative = inhibition: "inactive"
- Compound: "CN(C)CCc1c[nH]c2ccc(C[C@H]3COC(=O)N3)cc12"
  activity change, negative = inhibition: "inactive"
- Compound: "Cc1ccc(OC(=O)CC(C)C)cc1"
  activity change, negative = inhibition: "inactive"
- Compound: "CSC(=O)c1cccc2nnsc12"
  activity change, negative = inhibition: "inactive"
- Compound: "Cc1ccc(N)nc1"
  activity change, negative = inhibition: "inactive"
- Compound: "CCCC(C)C(O)CC (stereo not given)"
  activity change, negative = inhibition: "inactive"
- Compound: "CC(=O)/C=C/C=C1/C2CCC(C2)C1(C)C (stereo not given)"
  activity change, negative = inhibition: "inactive"
- Compound: "O=C1c2ccccc2C(=O)N1CO"
  activity change, negative = inhibition: "inactive"
- Compound: "COC(C)(C)CC(C)=O"
  activity change, negative = inhibition: "inactive"

====

Test: qHTS assay to identify small molecule antagonists of the estrogen related receptor (ERR) signaling pathway from Tox21 library - cell viability counter screen (AID 1224834); further: on the % scale 0 is the no-effect control and ±100 the full control effect; nearly all actives have a fitted effect of over 30% in size
Conditions: ERR reporter cells viability, CellTiter-Fluor, 17.5 h; series mostly up to 92.4 µM
Description: National Center for Advancing Translational Sciences [NCATS] NIH Chemical Genomics Center [NCGC] U.S. Environmental Protection Agency [EPA] National Institutes of Environmental Health Sciences [NIEHS] National Toxicology Program [NTP] […] The ERR cells were dispensed at 2,000 cells/5 ul/well in 1536-well white plates using a Multidrop dispenser. […] After 30-minute incubation at 37 C/5% CO2, the fluorescence intensity in the plates was measured using a ViewLux plate reader.
Results filed as inconclusive are left out. The source made the active and inactive calls. Calls come from the whole dose curve; as a rule, active = well fitted cell-killing curve with a large enough effect in the repeat runs; inconclusive = weak or mixed curves; inactive = flat fitted curve, though single readings scatter. Non-standard residues stand in square brackets, D forms with d. Residues, ends and D or L forms follow the SMILES beside them. *: point of attachment. Sta = CC(C)C[C@H](N)[C@@H](O)CC(=O)O; Isovaleryl = CC(C)CC(=O)*
Parameter measured: viability change, negative = cytotoxic

- Compound: "CC(C)CC(=O)N[C@H](C(=O)N[C@H](C(=O)N[C@@H](CC(C)C)[C@@H](O)CC(=O)N[C@@H](C)C(=O)N[C@@H](CC(C)C)[C@@H](O)CC(=O)O)C(C)C)C(C)C (Isovaleryl-VV[Sta]A[Sta]-OH)"
  Parameter measured: "viability change, negative = cytotoxic"
  Result: "inactive"
- Compound: "C=CCOC(=O)CCCCCCCC"
  Parameter measured: "viability change, negative = cytotoxic"
  Result: "inactive"
- Compound: "NC(=O)CC[C@@H](N)C(=O)O"
  Parameter measured: "viability change, negative = cytotoxic"
  Result: "inactive"
- Compound: "CC/C=C\\CCOC(=O)c1ccccc1"
  Parameter measured: "viability change, negative = cytotoxic"
  Result: "inactive"
- Compound: "O=C(O)P(=O)(O)O"
  Parameter measured: "viability change, negative = cytotoxic"
  Result: "inactive"
- Compound: "Cc1ccc(S(=O)(=O)NC(=O)NN2CC3CCCC3C2)cc1 (configuration not stated)"
  Parameter measured: "viability change, negative = cytotoxic"
  Result: "inactive"
- Compound: "CCCCCCC(=O)c1ccccc1"
  Parameter measured: "viability change, negative = cytotoxic"
  Result: "inactive"
- Compound: "O=C(CCBr)N1CCN(C(=O)CCBr)CC1"
  Parameter measured: "viability change, negative = cytotoxic"
  Result: "inactive"
- Compound: "COc1cc(OC)cc(OC)c1"
  Parameter measured: "viability change, negative = cytotoxic"
  Result: "inactive"
- Compound: "CC/C=C\\CCCCCCCCCCOC(C)=O"
  Parameter measured: "viability change, negative = cytotoxic"
  Result: "inactive"
- Compound: "O=Cc1ccc(C(=O)O)cc1"
  Parameter measured: "viability change, negative = cytotoxic"
  Result: "inactive"
- Compound: "CCCCC(CC)CCC(CC(C)C)OS(=O)(=O)O (configuration not stated)"
  Parameter measured: "viability change, negative = cytotoxic"
  Result: "inactive"

====

Assay: qHTS assay to identify small molecule agonists of the AP-1 signaling pathway - cell viability counter screen (AID 1159525); further: nearly all actives have a fitted effect of over 55% in size
Details: ME-180 (cervical carcinoma) AP-1-bla cells viability, ATP luminescence, 5 h; series mostly up to 76.8 µM
Results filed as inconclusive are left out. The source made the active and inactive calls. Calls come from the whole dose curve.

- Compound: "CCCC(C)C(O)CC (stereo not drawn)"
  viability change, negative = cytotoxic: "inactive"
- Compound: "c1cc2ccc3ccc4ccc5cccc6c(c1)c2c3c4c56"
  viability change, negative = cytotoxic: "-12.5% [at 2.72 µM] (inactive)"
- Compound: "COC(=O)c1cc(Cl)c(NC(C)=O)cc1OC"
  viability change, negative = cytotoxic: "inactive"
- Compound: "CCCCN(CCCC)CCCCCCN(CCCC)CCCC"
  viability change, negative = cytotoxic: "inactive"
- Compound: "C/C=C/C(=O)CCCC"
  viability change, negative = cytotoxic: "inactive"
- Compound: "C=CC(=O)OCCOCCOCC"
  viability change, negative = cytotoxic: "inactive"
- Compound: "C[C@@H]1CC[C@@]2(OC1)O[C@H]1C[C@H]3[C@@H]4CC[C@H]5C[C@@H](O)CC[C@]5(C)[C@H]4CC(=O)[C@]3(C)[C@H]1[C@@H]2C"
  viability change, negative = cytotoxic: "2.16% [at 6.97 µM] (inactive)"
- Compound: "c1coc(Cn2cccc2)c1"
  viability change, negative = cytotoxic: "inactive"
- Compound: "CC1(C)S[C@@H]2[C@H](NC(=O)Cc3ccccc3)C(=O)N2[C@H]1C(=O)O (tested in a mixture with another compound)"
  viability change, negative = cytotoxic: "inactive"
- Compound: "C/C(Cl)=C/CCl"
  viability change, negative = cytotoxic: "inactive"
- Compound: "CCCc1ccc(O)c(OC)c1"
  viability change, negative = cytotoxic: "inactive"
- Compound: "CN(C)CCc1c[nH]c2ccc(CS(=O)(=O)N3CCCC3)cc12"
  viability change, negative = cytotoxic: "inactive"
- Compound: "O=C(OOC(=O)c1ccccc1)c1ccccc1"
  viability change, negative = cytotoxic: "inactive"

All values here come from PubChem BioAssay (Tox21).
